MEASURED_ON: Angiopoietin-1 receptor (Homo sapiens, UniProt Q02763)
Sequence (Q02763 whole entry): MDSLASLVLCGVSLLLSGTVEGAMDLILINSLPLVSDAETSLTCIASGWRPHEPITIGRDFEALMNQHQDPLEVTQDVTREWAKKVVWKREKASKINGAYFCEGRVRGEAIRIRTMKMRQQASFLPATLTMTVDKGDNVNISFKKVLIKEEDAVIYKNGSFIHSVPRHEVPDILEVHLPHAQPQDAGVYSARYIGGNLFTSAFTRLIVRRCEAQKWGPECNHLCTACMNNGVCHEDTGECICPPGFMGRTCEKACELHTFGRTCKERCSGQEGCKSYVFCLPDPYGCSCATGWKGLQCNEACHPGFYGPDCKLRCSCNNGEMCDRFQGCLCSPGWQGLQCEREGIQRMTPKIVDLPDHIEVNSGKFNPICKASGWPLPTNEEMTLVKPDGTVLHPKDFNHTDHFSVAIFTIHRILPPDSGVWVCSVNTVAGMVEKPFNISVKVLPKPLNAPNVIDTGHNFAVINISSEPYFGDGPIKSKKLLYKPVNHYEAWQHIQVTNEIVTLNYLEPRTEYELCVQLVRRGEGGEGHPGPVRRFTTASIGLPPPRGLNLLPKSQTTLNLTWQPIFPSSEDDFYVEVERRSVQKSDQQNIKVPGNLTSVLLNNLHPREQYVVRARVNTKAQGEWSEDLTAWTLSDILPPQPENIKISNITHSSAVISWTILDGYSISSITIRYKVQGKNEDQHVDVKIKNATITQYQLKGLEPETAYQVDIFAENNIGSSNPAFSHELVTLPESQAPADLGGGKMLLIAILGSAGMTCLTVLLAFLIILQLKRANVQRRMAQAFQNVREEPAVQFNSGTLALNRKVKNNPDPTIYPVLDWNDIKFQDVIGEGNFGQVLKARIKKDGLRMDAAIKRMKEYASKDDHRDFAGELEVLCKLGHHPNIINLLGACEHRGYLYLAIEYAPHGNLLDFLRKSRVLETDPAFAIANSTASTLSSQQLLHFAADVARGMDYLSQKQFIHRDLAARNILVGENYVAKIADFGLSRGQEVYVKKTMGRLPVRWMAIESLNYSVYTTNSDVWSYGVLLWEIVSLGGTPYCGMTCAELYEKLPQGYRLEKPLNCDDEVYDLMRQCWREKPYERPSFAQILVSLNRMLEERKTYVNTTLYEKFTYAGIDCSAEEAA
TEST_PROTOCOL: Inhibitory activity against Tie2
pIC50: −log10 of the molar value.
QUANTITY: pIC50

{"columns": ["CPD_SMILES", "READOUT_QUALIFIER", "NUMERIC_RESULT"],
 "data": [
  ["COc1cc(-c2ccc3c(c2)NC(=O)/C3=C\\c2ccc[nH]2)ccc1O", "<", 4.30],
  ["COc1cc(-c2ccc3c(c2)NC(=O)/C3=C\\c2ncc[nH]2)ccc1O", "=", 4.63]
]}

----------
Measured IC50 on Proto-oncogene tyrosine-protein kinase Src (Homo sapiens, UniProt P12931) follows.
Sequence (P12931 2-536 limits assumed): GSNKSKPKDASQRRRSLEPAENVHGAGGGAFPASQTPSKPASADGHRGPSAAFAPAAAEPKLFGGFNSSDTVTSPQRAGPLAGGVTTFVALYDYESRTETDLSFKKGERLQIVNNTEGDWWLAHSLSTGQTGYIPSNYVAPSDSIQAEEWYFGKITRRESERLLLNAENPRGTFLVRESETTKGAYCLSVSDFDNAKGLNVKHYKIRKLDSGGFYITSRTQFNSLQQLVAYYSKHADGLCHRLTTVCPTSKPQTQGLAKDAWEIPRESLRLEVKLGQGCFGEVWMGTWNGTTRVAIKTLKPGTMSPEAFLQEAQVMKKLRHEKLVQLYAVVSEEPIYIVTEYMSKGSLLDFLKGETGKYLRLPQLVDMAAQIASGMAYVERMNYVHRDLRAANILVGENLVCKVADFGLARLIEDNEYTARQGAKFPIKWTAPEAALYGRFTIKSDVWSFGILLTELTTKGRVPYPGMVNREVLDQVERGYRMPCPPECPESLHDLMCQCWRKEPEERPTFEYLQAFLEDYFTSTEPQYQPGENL

{"columns": ["CPD_SMILES", "MEASURED_ON", "IC50"],
 "data": [
  ["COc1cc(-c2ccc3c(c2)NC(=O)/C3=C\\c2ncc[nH]2)ccc1O", "Proto-oncogene tyrosine-protein kinase Src (Homo sapiens, UniProt P12931)", "> 50 µM"],
  ["COc1cc(-c2ccc3c(c2)NC(=O)/C3=C\\c2c[nH]c3ncccc23)ccc1O", "Proto-oncogene tyrosine-protein kinase Src (Homo sapiens, UniProt P12931)", "2.38 µM"],
  ["COc1cc(-c2ccc3c(c2)NC(=O)/C3=C\\c2ccc[nH]2)ccc1O", "Proto-oncogene tyrosine-protein kinase Src (Homo sapiens, UniProt P12931)", "> 50 µM"]
]}
